- Test system: BEL-7402
- Assay type: cell-based, Human
- assay_setup: 72 h
Where no end group is shown, it is not given here.
quantity_name: IC50 (nM)
Kindly provide the numeric value in nM only, without the unit symbol.

Lab note: substance SKVTKKYHEVLQLRPKTGVRGLHKSLTDVALEHHEECDCVCRGSTGG-OH (cysteines drawn unpaired) [Peptide SEQ ID NO:1] tested on BEL-7402; recorded IC50 was 1780
